Data credit: PubChem BioAssay (NCI)

# Test system: MCF7 breast
# Test summary: NCI-60 one-dose screen, 48 h
# Measurement setup: 10 µM unless noted
Compounds without any hit were thinned out: in the full panel of roughly 83,000, 20% have a hit. Calls of active or inactive are those of the source. How the source made its calls: active means growth percent below 10; inactive means the rest.
Please answer using one outcome listed in active, inactive

Completed entries (count: 8):
>  <Molecule>
O=C(O)C1CCCN1 (stereo unspecified)

>  <Assigned category>
inactive

$$$$
>  <Molecule>
N[C@H]1CN(C(=O)c2cc3cc(Br)c(F)c(F)c3[nH]2)C[C@@H]1O

>  <Assigned category>
inactive

$$$$
>  <Molecule>
Cc1ccc(/C=C2\CN(C(=O)CCN3CCC(=NO)CC3)C/C(=C\c3ccc(C)cc3)C2=O)cc1

>  <Assigned category>
active

$$$$
>  <Molecule>
Cc1ccc(S(=O)(=O)NCCNc2nccc(-c3c(-c4ccc(O)cc4)nc4sccn34)n2)cc1

>  <Assigned category>
inactive

$$$$
>  <Molecule>
CCCCOc1ccc(/C=C2/SC(N3CCOCC3)=NC2=O)cc1OCC

>  <Assigned category>
inactive

$$$$
>  <Molecule>
C=C(C)[C@@H]1CC[C@]2(C(=O)N3CCNCC3)CC[C@]3(C)[C@H](CC[C@@H]4[C@@]5(C)C/C(=C/c6ccncc6)C(=O)C(C)(C)[C@@H]5CC[C@]43C)[C@@H]12

>  <Assigned category>
inactive

$$$$
>  <Molecule>
CCOC(=O)c1cc(C(=O)c2cc(OC)c(OC)c(OC)c2)n2c1ccc1ccccc12

>  <Assigned category>
inactive

$$$$
>  <Molecule>
Cc1ccc(S(=O)(=O)n2cc(C(=O)C(=O)N3CCOCC3)c3ccccc32)cc1

>  <Assigned category>
inactive

$$$$

QUERY: Dear all, I need the recorded test outcome for CCN(CC)CCCC(C)Nc1c2ccc(Cl)cc2nc2cc(OC)c(OC)cc12 (stereo unspecified) , thank you.
RESULT: active

QUERY: Dear all, I need the recorded test outcome for `COC(=O)c1cc2cc(-c3ccc(OC)cc3)cnc2[nH]1` , thank you.
RESULT: inactive

QUERY: Dear all, I need the recorded test outcome for `Nc1nnc(-c2ccc3ccccc3c2O)o1` , thank you.
RESULT: inactive

---

Listing: growth of selected molecules
# System: SF-268 CNS
# Test summary: NCI-60 one-dose screen, 48 h (100 = growth as untreated, 0 = no growth, -100 = all killed)
# Measurement setup: 10 µM unless noted
The panel holds about 83,000 compounds, 20% with a hit somewhere; the sample as a whole holds those more often.
Provide only the numeric value, understood in %.

>  <Molecule>
COc1ccc2c(c1)[nH]c(=O)c1c3cc(OC)ccc3cn21

>  <Value observed>
-3.31

$$$$
>  <Molecule>
c1ccc(-c2nnc(-c3ccccn3)s2)nc1

>  <Value observed>
95.4

$$$$
>  <Molecule>
O=C(Nc1ccncc1)C(=O)c1cn(S(=O)(=O)c2ccc(Oc3ccccc3)cc2)c2ccccc12

>  <Value observed>
109

$$$$
>  <Molecule>
COc1cc(Nc2ncccc2C(=O)NCc2cn(Cc3cccc(Oc4ccccc4)c3)nn2)cc(OC)c1

>  <Value observed>
47.2

$$$$

QUERY: Checklist item: growth tested on SF-268 CNS, entry C/C=C/C1=CN2C(=O)c3cc(OC4OC(C)C(NC)C(C)(O)C4O)c(C)cc3N=C[C@@H]2C1 (some centres undefined) , value?
RESULT: -28.8

QUERY: Checklist item: growth tested on SF-268 CNS, entry `N[C@@H]1CCN(C(=O)c2cc3cc(Cl)c(F)c(F)c3[nH]2)C1` , value?
RESULT: 79.8

QUERY: Checklist item: growth tested on SF-268 CNS, entry `CCN1CCN(c2nc(NNC(=O)c3ccccc3)nc(N3CCN(C(c4ccccc4)c4ccccc4)CC3)n2)CC1` , value?
RESULT: 76.9

QUERY: Checklist item: growth tested on SF-268 CNS, entry `COc1ccc(Nc2[nH]n3c(=O)cc(-c4ccccc4)nc3c2C(=O)Nc2ccc(C)cc2)c(OC)c1` , value?
RESULT: 96.2

QUERY: Checklist item: growth tested on SF-268 CNS, entry `O=C([O][Sn]([O]C(=O)c1ccccn1)([c]1ccccc1)[c]1ccccc1)c1ccccn1` , value?
RESULT: 83.5
